Values compiled from PubChem BioAssay (EPA / NIEHS).

assay: ATG_Sox_CIS: Attagene CIS-FACTORIAL HepG2 Assay for human SRY-box transcription factor (SOX) (AID 2282960); details: HepG2 Attagene cis-factorial SOX reporter, mRNA; actives raise or lower the signal
Active and inactive are the calls of the source. Rule for the calls: active = hit-call score of the fitted dose curve at least 0.9, where 1 is the maximum; inactive = score below 0.9.
ATTRIBUTE_MEASURED: outcome

| COMPOUND | ATTRIBUTE_MEASURED | RESULT |
| --- | --- | --- |
| OCC(F)(F)OC(F)(F)C(F)(F)OC(F)(F)C(F)(F)OC(F)(F)F | outcome | inactive |
| Cc1ccc(C(=O)Cl)cc1 | outcome | inactive |
| FC(F)(F)C(F)(C(F)(F)F)C(F)(F)C(F)(F)CC1CO1 (centres undefined) | outcome | inactive |
| CC(C)(C)OOC(C)(C)C | outcome | inactive |
| ClC(Cl)c1ccccc1 | outcome | inactive |
| CCN(CC)C1CCCCC1 | outcome | inactive |
| CC(=O)c1ccc(-c2ccccc2)cc1 | outcome | inactive |
| CCCCCCCc1ccc(O)cc1 | outcome | inactive |
| ClC1=C(Cl)C2(Cl)C3C(Cl)C(Cl)CC3C1(Cl)C2(Cl)Cl (centres undefined) | outcome | inactive |
| N#C/C=C/c1ccccc1 | outcome | inactive |
| CC(Cc1ccc(OCC(=O)O)cc1)NCC(O)c1csc(C(F)(F)F)n1 (centres undefined) | outcome | inactive |
| Oc1ccc(I)cc1 | outcome | inactive |
| CNC(=O)Oc1ccc(N(C)C)c(C)c1 | outcome | inactive |
| c1nc[nH]n1 | outcome | inactive |
